Documented pIC50 across a set of compounds
- target-or-test-system: DRB1*0401 (Homo sapiens, UniProt P01903+P01911, A100K/A169T/F76Y/I96L/K127E/L162R/M171V/N62H/P40V/Q125Y/R42H/S133A/S149N/S66Y/V115G/V209L/W38E)
- experimental-details: biochemical
Give only the number. pIC50 is defined as minus log10 of concentration in molar units.

# compound-structure-string, pIC50
records = [
    ("CC[C@H](C)[C@H](NC(=O)[C@H](CC(N)=O)NC(=O)CNC(=O)[C@@H](NC(=O)CNC(=O)[C@H](CC(N)=O)NC(=O)[C@@H](N)CO)[C@@H](C)O)C(=O)N[C@H](C(=O)N[C@@H](CO)C(=O)N[C@@H](CO)C(=O)N[C@H](C(=O)N[C@@H](CC(N)=O)C(=O)N[C@@H](CCSC)C(=O)N[C@H](C(=O)N[C@@H](CO)C(=O)N[C@@H](CCCNC(=N)N)C(=O)N[C@@H](CC(C)C)C(=O)O)C(C)C)C(C)C)C(C)C", 8.96),
]

# input Can you share its pIC50? I mean this compound: `CSCC[C@H](NC(=O)[C@@H](NC(=O)[C@H](CCC(N)=O)NC(=O)[C@H](Cc1ccccc1)NC(=O)[C@H](CC(N)=O)NC(=O)[C@H](CCCCN)NC(=O)[C@@H]1CCCN1C(=O)[C@@H](N)CC(N)=O)[C@@H](C)O)C(=O)N1CCC[C@H]1C(=O)NCC(=O)N[C@H](C(=O)N[C@@H](Cc1ccccc1)C(=O)N[C@@H](CCC(N)=O)C(=O)N[C@H](C(=O)N[C@H](C(=O)O)[C@@H](C)O)[C@@H](C)O)[C@@H](C)O`
# output 8.27

---

- target-or-test-system: DRB1*0101 (Homo sapiens, UniProt P01903+P01911, A100R/D57E/F55L/F60I/F76Y/I96L/L162R/M171V/P40L/Q125E/R42F/V115G/Y59C)
- experimental-details: biochemical
- Assay type: binding
Where no end group is shown, it is not given here.
value-kind: IC50
Report as: number unit

# input Can you share its IC50? I mean this sequence: EGKVVQYENLKYTVI [Envelope 126-140]
# output 0.98 µM

---

- target-or-test-system: DRB3*0101 (Homo sapiens, UniProt P01903+P79483)
- experimental-details: biochemical
Documented pIC50 across a set of compounds
Give only the number. pIC50 is defined as minus log10 of concentration in molar units.

Previously resolved entries follow.
# compound, target-or-test-system, pIC50
measured = [
    ("CC[C@H](C)[C@H](NC(=O)[C@@H](NC(=O)[C@H](Cc1ccccc1)NC(=O)[C@H](CO)NC(=O)[C@H](CO)NC(=O)[C@H](CC(N)=O)NC(=O)[C@H](CCC(N)=O)NC(=O)[C@@H](NC(=O)[C@H](CCC(=O)O)NC(=O)[C@H](C)NC(=O)[C@@H](NC(=O)[C@@H](NC(=O)[C@@H](NC(=O)[C@H](CCCCN)NC(=O)[C@H](C)N)[C@@H](C)CC)C(C)C)[C@@H](C)O)[C@@H](C)O)[C@@H](C)CC)C(=O)O [NS1 121-135]", "DRB3*0101 (Homo sapiens, UniProt P01903+P79483)", 5.91),
    ("CC[C@H](C)[C@H](NC(=O)[C@H](Cc1ccc(O)cc1)NC(=O)[C@H](CCC(N)=O)NC(=O)[C@H](CC(=O)O)NC(=O)[C@H](CC(N)=O)NC(=O)[C@H](CCC(=O)O)NC(=O)[C@H](CCCCN)NC(=O)[C@H](CCC(N)=O)NC(=O)[C@@H]1CCCN1C(=O)[C@@H](N)CC(N)=O)C(=O)N[C@@H](Cc1ccccc1)C(=O)N[C@H](C(=O)NCC(=O)N[C@@H](CCC(N)=O)C(=O)N1CCC[C@H]1C(=O)O)[C@@H](C)O [NS3 465-479]", "DRB3*0101 (Homo sapiens, UniProt P01903+P79483)", 4.97),
    ("CC[C@H](C)[C@H](NC(=O)[C@H](Cc1c[nH]c2ccccc12)NC(=O)[C@H](CCC(=O)O)NC(=O)[C@H](CC(N)=O)NC(=O)CNC(=O)[C@H](CO)NC(=O)[C@H](CC(N)=O)NC(=O)[C@@H](N)Cc1c[nH]c2ccccc12)C(=O)N[C@H](C(=O)N[C@@H](CC(=O)O)C(=O)N[C@@H](Cc1ccccc1)C(=O)N[C@@H](C)C(=O)NCC(=O)N[C@@H](CCCCN)C(=O)N[C@H](C(=O)O)[C@@H](C)O)[C@@H](C)O [NS3 345-359]", "DRB3*0101 (Homo sapiens, UniProt P01903+P79483)", 7.49),
    ("CC(C)C[C@H](NC(=O)[C@H](CCCNC(=N)N)NC(=O)[C@H](CCCCN)NC(=O)CNC(=O)[C@@H](N)CC(N)=O)C(=O)N[C@@H](CCC(=O)O)C(=O)N1CCC[C@H]1C(=O)N[C@@H](CC(N)=O)C(=O)N[C@@H](Cc1c[nH]c2ccccc12)C(=O)N[C@@H](C)C(=O)N[C@@H](CO)C(=O)N[C@H](C(=O)N[C@@H](CCCCN)C(=O)N[C@@H](CCCCN)C(=O)N[C@@H](CC(=O)O)C(=O)O)C(C)C [NS3 61-75]", "DRB3*0101 (Homo sapiens, UniProt P01903+P79483)", 5.92),
    ("CC[C@H](C)[C@H](NC(=O)[C@H](C)NC(=O)[C@H](CC(N)=O)NC(=O)[C@H](C)NC(=O)[C@H](CC(C)C)NC(=O)[C@H](CCC(N)=O)NC(=O)[C@H](CCCNC(=N)N)NC(=O)[C@H](Cc1c[nH]cn1)NC(=O)[C@H](CCC(=O)O)NC(=O)[C@@H]1CCCN1)C(=O)N[C@@H](Cc1ccccc1)C(=O)N[C@@H](CCCCN)C(=O)N[C@@H](CC(C)C)C(=O)N[C@H](C(=O)N[C@@H](Cc1ccc(O)cc1)C(=O)N[C@@H](CCC(N)=O)C(=O)N[C@@H](CC(N)=O)C(=O)O)[C@@H](C)O [NS5 558-574]", "DRB3*0101 (Homo sapiens, UniProt P01903+P79483)", 5.97),
]

# input Request body: readout pIC50, system DRB3*0101 (Homo sapiens, UniProt P01903+P79483), query CC[C@H](C)[C@H](NC(=O)[C@@H](NC(=O)[C@H](CC(C)C)NC(=O)[C@H](CC(N)=O)NC(=O)[C@H](CCCNC(=N)N)NC(=O)[C@H](CCCCN)NC(=O)[C@@H](N)CCCCN)[C@@H](C)O)C(=O)N[C@@H](CCSC)C(=O)N[C@@H](CC(=O)O)C(=O)N[C@@H](CC(C)C)C(=O)N[C@@H](Cc1c[nH]cn1)C(=O)N1CCC[C@H]1C(=O)NCC(=O)N[C@@H](CO)C(=O)NCC(=O)O [NS3 185-199] . Return the value.
# output 5.84

# input Request body: readout pIC50, system DRB3*0101 (Homo sapiens, UniProt P01903+P79483), query C[C@@H](O)[C@H](NC(=O)[C@H](CO)NC(=O)[C@H](CO)NC(=O)[C@H](Cc1c[nH]cn1)NC(=O)[C@H](CCC(=O)O)NC(=O)[C@H](CCC(=O)O)NC(=O)[C@@H](N)CCCCN)C(=O)N[C@@H](Cc1c[nH]c2ccccc12)C(=O)N[C@@H](Cc1c[nH]cn1)C(=O)N[C@@H](Cc1ccc(O)cc1)C(=O)N[C@@H](CC(=O)O)C(=O)N[C@@H](CC(=O)O)C(=O)N[C@@H](CCC(=O)O)C(=O)N[C@@H](CC(N)=O)C(=O)N1CCC[C@H]1C(=O)N[C@@H](Cc1ccc(O)cc1)C(=O)N[C@@H](CCCCN)C(=O)O [NS5 284-300] . Return the value.
# output 7.77

# input Request body: readout pIC50, system DRB3*0101 (Homo sapiens, UniProt P01903+P79483), query CC[C@H](C)[C@H](NC(=O)[C@H](CC(C)C)NC(=O)[C@H](CC(N)=O)NC(=O)[C@H](Cc1ccc(O)cc1)NC(=O)[C@H](CC(N)=O)NC(=O)[C@@H]1CCCN1)C(=O)N[C@H](C(=O)N[C@@H](CCSC)C(=O)N[C@@H](CC(=O)O)C(=O)N[C@@H](CCC(=O)O)C(=O)N[C@@H](C)C(=O)N[C@@H](Cc1c[nH]cn1)C(=O)N[C@@H](Cc1ccccc1)C(=O)N[C@H](C(=O)N[C@@H](CC(=O)O)C(=O)O)[C@@H](C)O)[C@@H](C)CC [NS3 277-291] . Return the value.
# output 8.36

# input Request body: readout pIC50, system DRB3*0101 (Homo sapiens, UniProt P01903+P79483), query CSCC[C@H](NC(=O)[C@@H](NC(=O)[C@H](CCC(N)=O)NC(=O)[C@H](Cc1ccccc1)NC(=O)[C@H](CC(N)=O)NC(=O)[C@H](CCCCN)NC(=O)[C@@H]1CCCN1C(=O)[C@H](CC(N)=O)NC(=O)[C@H](CCCCN)NC(=O)CNC(=O)[C@@H]1CCCN1C(=O)[C@@H](N)CCC(=O)O)[C@@H](C)O)C(=O)N1CCC[C@H]1C(=O)NCC(=O)N[C@H](C(=O)O)[C@@H](C)O [NS3 101-115] . Return the value.
# output 5.39

Ref: paper PMC3794980
